All figures here come from paper PMC4507179.

# IC50 values compiled below
Target: HuPP5 R100A (Homo sapiens, UniProt P53041, R275A)
Construct: 6xHis (N)
Sequence (P53041 whole entry R275A): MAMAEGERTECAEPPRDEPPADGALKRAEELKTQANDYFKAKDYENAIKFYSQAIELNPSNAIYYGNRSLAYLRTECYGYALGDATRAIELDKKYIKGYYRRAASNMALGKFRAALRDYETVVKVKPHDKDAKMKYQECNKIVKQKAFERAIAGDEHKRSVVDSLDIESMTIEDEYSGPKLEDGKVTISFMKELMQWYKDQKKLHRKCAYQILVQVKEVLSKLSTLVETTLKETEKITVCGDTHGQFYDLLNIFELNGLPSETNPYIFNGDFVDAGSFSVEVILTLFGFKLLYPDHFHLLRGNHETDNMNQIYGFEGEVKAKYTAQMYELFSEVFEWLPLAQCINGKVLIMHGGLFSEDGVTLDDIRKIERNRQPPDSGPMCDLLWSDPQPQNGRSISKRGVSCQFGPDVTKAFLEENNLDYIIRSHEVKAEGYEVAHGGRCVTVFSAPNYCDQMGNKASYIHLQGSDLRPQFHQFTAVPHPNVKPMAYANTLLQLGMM
Test: Inhibition of recombinant HuPP5 mutant R100A (p-NPP substrate)
Details: recombinant HuPP5 R100A; p-NPP; mean ± S.D., three independent experiments
Experimental: A PCR-based site-directed mutagenesis approach was used to change Arg 100 to Ala (R100A), His 129 to Ala (H129A), and Arg 225 to Ala (R225A). […] Cells were harvested by centrifugation (8,000 g for 10 min at 4 ℃) and were lysed by sonication in buffer A (20 mM Tris-HCl, pH=8.0, 4 mM MnCl2, 300 mM NaCl) containing 20 mM imidazole, 0.1% β-mercaptoethanol, 1.0 mg/ml lysozyme and 1 mM PMSF. […] Protein concentrations were determined using a BCA Protein Assay Kit (Pierce, Thermo Scientific, Rockford, IL, USA). […]
Only the number, expressed in µM, is required.

INSERT INTO measurements (molecule, tested_system, u, val) VALUES
  ('O=C(O)[C@@H]1[C@H](C(=O)O)[C@H]2CC[C@@H]1O2 [Endothall, endothall]', 'HuPP5 R100A (Homo sapiens, UniProt P53041, R275A)', 'µM', 18.4),
  ('C[C@@]12C(=O)OC(=O)[C@]1(C)[C@H]1CC[C@@H]2O1', 'HuPP5 R100A (Homo sapiens, UniProt P53041, R275A)', 'µM', 4.05);

Lookup: # lookup: HuPP5 R100A (Homo sapiens, UniProt P53041, R275A) IC50, key = O=C1OC(=O)[C@H]2[C@@H]1[C@@H]1CC[C@H]2O1
Found: 17.8
